Measured IC50 by item
Molecular target: glutathione reductase (GR) from E. coli (Escherichia coli, UniProt P06715)
Sequence (P06715 1-450): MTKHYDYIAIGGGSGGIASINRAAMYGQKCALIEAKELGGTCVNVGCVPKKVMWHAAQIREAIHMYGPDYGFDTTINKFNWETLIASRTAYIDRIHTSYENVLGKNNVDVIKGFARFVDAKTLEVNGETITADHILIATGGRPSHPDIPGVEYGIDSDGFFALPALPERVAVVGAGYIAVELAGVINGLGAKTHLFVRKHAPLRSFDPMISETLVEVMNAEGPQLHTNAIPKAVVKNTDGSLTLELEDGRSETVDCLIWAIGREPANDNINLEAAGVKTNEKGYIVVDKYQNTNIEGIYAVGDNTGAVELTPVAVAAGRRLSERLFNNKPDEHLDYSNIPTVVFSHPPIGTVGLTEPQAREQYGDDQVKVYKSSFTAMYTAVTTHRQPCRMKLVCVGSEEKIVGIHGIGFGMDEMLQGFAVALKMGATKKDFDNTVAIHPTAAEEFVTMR
# number only, unit nM dropped from output

>  <compound>
CC(C)n1[c](=[Ag][I])n(Cc2ccccn2)c2ccccc21

>  <test target>
glutathione reductase (GR) from E. coli (Escherichia coli, UniProt P06715)

>  <measure unit>
nM

>  <IC50>
39

$$$$
>  <compound>
O=[N+]([O-])[O-].[Ag+] [AgNO3, Silver nitrate, reference compound]

>  <test target>
glutathione reductase (GR) from E. coli (Escherichia coli, UniProt P06715)

>  <measure unit>
nM

>  <IC50>
31

$$$$

Form field: reported IC50 of CC(C)n1[c](=[Ag][Br])n(Cc2ccccn2)c2ccccc21
41

Consider the compound CC(C)n1[c](=[Ag][Cl])n(Cc2ccccn2)c2ccccc21 and give its measured IC50.
32

All figures here come from paper PMC11091889.
